- System: A498 renal
- protocol-notes: NCI-60 one-dose screen, 48 h
- assay-context: 10 µM unless noted
Compounds without any hit were thinned out: in the full panel of roughly 83,000, 20% have a hit. Active and inactive are the calls of the source. The calls were made as follows: active = growth percent below 10; inactive = the rest.
Permitted responses: active, inactive

Which outcome did this test record for the compound O=C(C[n+]1ccn(CC(OCc2ccc(Cl)cc2Cl)c2ccc(Cl)cc2Cl)c1)c1ccc(F)cc1 (stereo not given) ?
active

Which outcome did this test record for the compound Cn1cc(-c2noc(-c3cn(C)c4ncc(F)cc34)n2)c2cc(Br)ccc21 ?
inactive

Which outcome did this test record for the compound COc1cc(Cl)cc(-c2nn(C(=O)NS(=O)(=O)c3ccccc3)cc2-c2ccncc2)c1 ?
inactive

Which outcome did this test record for the compound O=C1COCCN1c1ccc(NCc2cn(Cc3cccc4ccccc34)c3ccccc23)cc1 ?
active

Which outcome did this test record for the compound COC(=O)c1cc(O)c2c(c1C(=O)OC)C[C@H]1[C@@H]3CC=C4C[C@@H](O)CC[C@]4(C)[C@H]3CC[C@]21C ?
inactive

Which outcome did this test record for the compound CCOC(=O)c1cc(C#N)n2ncc3ccccc3c12 ?
inactive

Which outcome did this test record for the compound CCOC(=O)Nc1ccc2c(c1)/C(=N\NC(=S)NC)c1ccccc1-2 ?
inactive

Which outcome did this test record for the compound COc1ccc(-c2cc(-c3ccc(Cl)cc3)nc(SCCCCCCC(=O)NO)n2)cc1 ?
inactive

Which outcome did this test record for the compound CCC(Br)(CC)C(=O)c1ccc(OCC(=O)O)c(Cl)c1Cl ?
inactive

Which outcome did this test record for the compound O=C(Nc1cccc2ccccc12)c1cc2ccccc2cc1O ?
active
